The measured values listed here are drawn from paper PMC6119551.

# study target: human 5-HT2C receptors (Homo sapiens)
# Sequence (P28335 33-458): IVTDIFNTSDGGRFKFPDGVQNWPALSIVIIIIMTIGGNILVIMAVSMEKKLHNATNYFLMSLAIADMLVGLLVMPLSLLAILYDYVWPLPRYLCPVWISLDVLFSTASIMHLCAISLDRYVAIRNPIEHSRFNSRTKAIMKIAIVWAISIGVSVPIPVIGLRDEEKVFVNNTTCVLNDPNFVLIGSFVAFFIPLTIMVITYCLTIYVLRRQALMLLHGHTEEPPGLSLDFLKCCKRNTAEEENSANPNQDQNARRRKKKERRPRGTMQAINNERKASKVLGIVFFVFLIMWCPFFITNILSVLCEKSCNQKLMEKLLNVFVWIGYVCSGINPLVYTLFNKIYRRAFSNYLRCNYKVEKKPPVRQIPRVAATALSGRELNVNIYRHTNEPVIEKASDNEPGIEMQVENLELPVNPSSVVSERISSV
# assay protocol: Calcium mobilization, HEK293 cells expressing human 5-HT2C
measured property: EC50

Some solved entries appear below for comparison.
- COc1cc(CC(C)N)c(OC)cc1I (centres unmarked) [DOI, reference compound]: 47.7 nM
- COc1cc(CCNCc2ccccc2OC)c(OC)cc1Cl [Compound 25C-NBOMe]: 178 nM
- COc1cc(CCNCc2ccccc2OC)c(OC)cc1I [Compound 25I-NBOMe]: 88.9 nM
- COc1cc(CCN)c(OC)cc1Cl [Compound 2C-C]: 77.6 nM

Okay, next one:
Query: Please report the recorded EC50 for COc1cc(CCN)c(OC)cc1I [Compound 2C-I, 2-(4-iodo-2,5-dimethoxyphenyl)ethanamine] .
Reply: 47.2 nM

----------
Entries annotated with measured EC50
# study target: UniProtKB P28223
# Sequence (P28223 whole entry): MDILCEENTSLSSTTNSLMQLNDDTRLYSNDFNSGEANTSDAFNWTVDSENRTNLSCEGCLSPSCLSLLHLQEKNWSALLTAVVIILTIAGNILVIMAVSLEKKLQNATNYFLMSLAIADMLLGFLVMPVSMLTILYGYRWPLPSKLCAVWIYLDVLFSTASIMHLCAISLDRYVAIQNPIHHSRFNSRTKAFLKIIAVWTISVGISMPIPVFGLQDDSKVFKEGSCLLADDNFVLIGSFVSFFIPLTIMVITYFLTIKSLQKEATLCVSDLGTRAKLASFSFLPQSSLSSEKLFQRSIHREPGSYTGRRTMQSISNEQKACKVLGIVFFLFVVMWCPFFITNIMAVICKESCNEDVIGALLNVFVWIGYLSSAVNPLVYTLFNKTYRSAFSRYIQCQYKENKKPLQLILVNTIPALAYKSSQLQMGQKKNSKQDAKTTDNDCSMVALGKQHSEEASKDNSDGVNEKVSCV
# assay protocol: Calcium mobilization, HEK293 cells expressing human 5-HT2A
Unit nM implied. Number only.

Some solved entries appear below for comparison.
- COc1cc(CCN)c(OC)cc1I: 3.97
- COc1cc(CCN)c(OC)cc1Cl: 4.57
- COc1cc(CCNCc2ccccc2OC)c(OC)cc1I [Compound 25I-NBOMe]: 34.7

Query: Please report the recorded EC50 for COc1cc(CCNCc2ccccc2OC)c(OC)cc1Cl [Compound 25C-NBOMe] .
Reply: 61.7
